Measured inhibition at 3.3 µM by item
target: HIV-1 protease (Human immunodeficiency virus type 1 group M subtype B); construct: The protease (or proteinase) enzyme, consisting of only 99 amino acids; assay: In vitro HIV protease inhibitory assay (fluorescently labeled substrate, avidin-polystyrene particles); format: biochemical; conditions: HIV-1 dose 3.3 μM

COMPOUND: N#Cc1ccc(S(=O)(=O)Nc2cccc(CC3=C(O)C(Cc4ccccc4)(Cc4ccccc4)OC3=O)c2)cc1
VALUE RELATION SIGN: =
inhibition at 3.3 µM, %: 81.9
--
COMPOUND: O=C1OC(CCCc2ccccc2)C(O)=C1C(c1ccccc1)c1ccccc1 (stereo not shown)
VALUE RELATION SIGN: =
inhibition at 3.3 µM, %: 41.5
--
COMPOUND: C=CC(C1=C(O)C(CCCc2ccccc2)OC1=O)c1ccccc1 (stereo not shown)
VALUE RELATION SIGN: =
inhibition at 3.3 µM, %: 38.6
--
COMPOUND: O=C1OC2(CCNCC2)C(O)=C1C(c1ccccc1)C1CC1 (stereo not shown)
VALUE RELATION SIGN: =
inhibition at 3.3 µM, %: 14.9
--
COMPOUND: CCCC1(CCC)OC(=O)C(C(c2cccc(NS(=O)(=O)c3ccc(C#N)cc3)c2)C2CCCC2)=C1O (stereo not shown)
VALUE RELATION SIGN: =
inhibition at 3.3 µM, %: 97.4
--
COMPOUND: O=C1OC(C(O)C=Cc2ccccc2)C(O)=C1C(c1ccccc1)C1CC1 (stereo not shown)
VALUE RELATION SIGN: <
inhibition at 3.3 µM, %: 10
--
COMPOUND: O=C1OC(CCCc2ccccc2)(CCc2ccccc2)C(O)=C1C(c1ccccc1)C1CC1 (stereo not shown)
VALUE RELATION SIGN: =
inhibition at 3.3 µM, %: 113

---

Measured inhibition at 1.1 µM by item
target: HIV-1 protease (Human immunodeficiency virus type 1 group M subtype B); construct: The protease (or proteinase) enzyme, consisting of only 99 amino acids; assay: In vitro HIV protease inhibitory assay (fluorescently labeled substrate, avidin-polystyrene particles); type: biochemical; conditions: HIV-1 dose 1.1 μM
ATTRIBUTE MEASURED: inhibition at 1.1 µM (%)

COMPOUND: O=C1OC2(CCCCCCC2)C(O)=C1C(c1ccccc1)C1CC1 (stereo not drawn)
EXPERIMENTAL RESULT: 96
//
COMPOUND: CC(C)CC1(CCCc2ccccc2)OC(=O)C(C(c2ccccc2)C2CC2)=C1O (stereo not drawn)
EXPERIMENTAL RESULT: 90.3
//
COMPOUND: COC(=O)CC(CCc1ccccc1)C1OC(=O)C(C(c2ccccc2)C2CC2)=C1O (stereo not drawn)
EXPERIMENTAL RESULT: 37.6
//
COMPOUND: CCC(C)C1(CCCc2ccccc2)OC(=O)C(C(c2ccccc2)C2CC2)=C1O (stereo not drawn)
EXPERIMENTAL RESULT: 103
//
COMPOUND: CC(C)C1(C(C)C)OC(=O)C(C(c2ccccc2)C2CC2)=C1O (stereo not drawn)
EXPERIMENTAL RESULT: 94.1
//
COMPOUND: CCCC1(CCC)OC(=O)C(C(c2cccc(NS(=O)(=O)c3ccccc3)c2)C2CC2)=C1O (stereo not drawn)
EXPERIMENTAL RESULT: 104

---

target: HIV-1 protease (Human immunodeficiency virus type 1 group M subtype B); construct: The protease (or proteinase) enzyme, consisting of only 99 amino acids; assay: In vitro HIV protease inhibitory assay (fluorescently labeled substrate, avidin-polystyrene particles); format: biochemical; conditions: HIV-1 dose 30.0 μM

COMPOUND: CCC(CC)C1OC(=O)C(C(c2ccccc2)C2CC2)=C1O (centres unmarked)
TEST TARGET: HIV-1 protease (Human immunodeficiency virus type 1 group M subtype B)
inhibition at 30 µM: 84.3%

COMPOUND: CCCC1(CCC)OC(=O)C(C(CC)c2cccc(NS(=O)(=O)c3ccccc3)c2)=C1O (centres unmarked)
TEST TARGET: HIV-1 protease (Human immunodeficiency virus type 1 group M subtype B)
inhibition at 30 µM: 91.8%

COMPOUND: CC(C)(C)C(C1=C(O)C(CCCc2ccccc2)OC1=O)c1ccccc1 (centres unmarked)
TEST TARGET: HIV-1 protease (Human immunodeficiency virus type 1 group M subtype B)
inhibition at 30 µM: 84.3%

COMPOUND: CCCC1(CCC)OC(=O)C(C(c2cccc(NC(=O)OCc3ccccc3)c2)C2CC2)=C1O (centres unmarked)
TEST TARGET: HIV-1 protease (Human immunodeficiency virus type 1 group M subtype B)
inhibition at 30 µM: 111%

COMPOUND: CCC/C=C1\OC(=O)C(C(c2ccccc2)C2CC2)=C1O (centres unmarked)
TEST TARGET: HIV-1 protease (Human immunodeficiency virus type 1 group M subtype B)
inhibition at 30 µM: 113%

---

target: HIV-1 protease (Human immunodeficiency virus type 1 group M subtype B); construct: The protease (or proteinase) enzyme, consisting of only 99 amino acids; assay: In vitro HIV protease inhibitory assay (fluorescently labeled substrate, avidin-polystyrene particles); type: biochemical; settings: HIV-1 dose 3.3 μM
ATTRIBUTE MEASURED: inhibition at 3.3 µM (%)

COMPOUND: CCCC(c1ccccc1)C1OC(=O)C(C(c2ccccc2)C2CC2)=C1O (stereo not drawn)
EXPERIMENTAL RESULT: 92.7
--
COMPOUND: CC(C)(C)C(C1=C(O)C(Cc2ccccc2)(Cc2ccccc2)OC1=O)c1cccc(NS(=O)(=O)c2ccc(C#N)cc2)c1 (stereo not drawn)
EXPERIMENTAL RESULT: 102
--
COMPOUND: CCCCC(CC)C1OC(=O)C(C(c2ccccc2)C2CC2)=C1O (stereo not drawn)
EXPERIMENTAL RESULT: 94
--
COMPOUND: O=C1OC(CCCc2ccccc2)(CCCc2ccccc2)C(O)=C1C(c1ccccc1)C1CC1 (stereo not drawn)
EXPERIMENTAL RESULT: 85
--
COMPOUND: COC(=O)CC(CCc1ccccc1)C1OC(=O)C(C(c2ccccc2)C2CC2)=C1O (stereo not drawn)
EXPERIMENTAL RESULT: 62.1
--
COMPOUND: O=C1O/C(=C\c2ccccc2)C(O)=C1C(c1ccccc1)C1CC1 (stereo not drawn)
EXPERIMENTAL RESULT: 56.9
--
COMPOUND: CCCC1(CCC)OC(=O)C(C(c2cccc(NS(=O)(=O)c3cccc4ccccc34)c2)C2CC2)=C1O (stereo not drawn)
EXPERIMENTAL RESULT: 103
--
COMPOUND: CC(C)(C)OC(=O)N1CCC2(CC1)OC(=O)C(C(c1ccccc1)C1CC1)=C2O (stereo not drawn)
EXPERIMENTAL RESULT: 78.8
--
COMPOUND: CCCC1(Cc2ccccc2)OC(=O)C(C(c2cccc(NS(=O)(=O)c3ccccc3)c2)C(C)C)=C1O (stereo not drawn)
EXPERIMENTAL RESULT: 105
--
COMPOUND: CCCC1(CCC)OC(=O)C(C(c2cccc(NS(=O)(=O)c3ccc(C#N)cc3)c2)C2CC2)=C1O (stereo not drawn)
EXPERIMENTAL RESULT: 113
--
COMPOUND: CCCC1(CCc2ccccc2)OC(=O)C(C(c2ccccc2)C2CC2)=C1O (stereo not drawn)
EXPERIMENTAL RESULT: 114
--
COMPOUND: CCC1(CCc2ccccc2)OC(=O)C(C(c2ccccc2)C2CC2)=C1O (stereo not drawn)
EXPERIMENTAL RESULT: 108
--
COMPOUND: CCCC1(CCC)OC(=O)C(C(CC(C)C)c2cccc(NS(=O)(=O)c3cn(C)cn3)c2)=C1O (stereo not drawn)
EXPERIMENTAL RESULT: 94.3
--
COMPOUND: CCCC1(CCC)OC(=O)C(C(c2cccc(NS(=O)(=O)c3nccn3C)c2)C2CC2)=C1O (stereo not drawn)
EXPERIMENTAL RESULT: 99.2
--
COMPOUND: CC1(CCCc2ccccc2)OC(=O)C(C(c2ccccc2)C2CC2)=C1O (stereo not drawn)
EXPERIMENTAL RESULT: 112
--
COMPOUND: CCCC1(CCC)OC(=O)C(C(c2cccc(NS(=O)(=O)c3ccccn3)c2)C2CC2)=C1O (stereo not drawn)
EXPERIMENTAL RESULT: 110
--
COMPOUND: CC1(Cc2ccccc2)OC(=O)C(C(c2ccccc2)C2CC2)=C1O (stereo not drawn)
EXPERIMENTAL RESULT: 94.5
--
COMPOUND: CCCC1(CCC)OC(=O)C(C(CC)c2cccc([N+](=O)[O-])c2)=C1O (stereo not drawn)
EXPERIMENTAL RESULT: 102

---

Measured inhibition at 3.3 µM by item
biological target: HIV-1 protease (Human immunodeficiency virus type 1 group M subtype B, UniProt P04585); construct: The protease (or proteinase) enzyme, consisting of only 99 amino acids; assay: In vitro HIV protease inhibitory assay (fluorescently labeled substrate, avidin-polystyrene particles); format: biochemical; settings: HIV-1 dose 3.3 μM
ATTRIBUTE MEASURED: inhibition at 3.3 µM (%)

COMPOUND: CCCC1(CCC)OC(=O)C(C(c2cccc([N+](=O)[O-])c2)C2CC2)=C1O (stereo not drawn)
ATTRIBUTE MEASURED: inhibition at 3.3 µM
MEASURE UNIT: %
EXPERIMENTAL RESULT: 108
--
COMPOUND: CCC(C1=C(O)C(Cc2ccccc2)OC1=O)c1ccccc1 (stereo not drawn)
ATTRIBUTE MEASURED: inhibition at 3.3 µM
MEASURE UNIT: %
EXPERIMENTAL RESULT: 50.1
--
COMPOUND: O=C1OC(=CCCc2ccccc2)C(O)=C1C(c1ccccc1)C1CC1 (stereo not drawn)
ATTRIBUTE MEASURED: inhibition at 3.3 µM
MEASURE UNIT: %
EXPERIMENTAL RESULT: 94.3
--
COMPOUND: CCCC1(CCC)OC(=O)C(C(c2cccc(NS(=O)(=O)c3ccc(C#N)cn3)c2)C2CC2)=C1O (stereo not drawn)
ATTRIBUTE MEASURED: inhibition at 3.3 µM
MEASURE UNIT: %
EXPERIMENTAL RESULT: 82.2
--
COMPOUND: CCC(C)C1(CCCc2ccccc2)OC(=O)C(C(c2ccccc2)C2CC2)=C1O (stereo not drawn)
ATTRIBUTE MEASURED: inhibition at 3.3 µM
MEASURE UNIT: %
EXPERIMENTAL RESULT: 100
--
COMPOUND: CCCC1(CCC)OC(=O)C(C(c2cccc(NS(=O)(=O)c3cn(C)cn3)c2)C(C)(C)C)=C1O (stereo not drawn)
ATTRIBUTE MEASURED: inhibition at 3.3 µM
MEASURE UNIT: %
EXPERIMENTAL RESULT: 110
--
COMPOUND: CCCC1(CCC)OC(=O)C(C(c2ccccc2)c2cccc(NS(=O)(=O)c3ccc(C#N)cc3)c2)=C1O (stereo not drawn)
ATTRIBUTE MEASURED: inhibition at 3.3 µM
MEASURE UNIT: %
EXPERIMENTAL RESULT: 93.5
--
COMPOUND: CCC1CCCCC12OC(=O)C(C(c1ccccc1)C1CC1)=C2O (stereo not drawn) [IX-34]
ATTRIBUTE MEASURED: inhibition at 3.3 µM
MEASURE UNIT: %
EXPERIMENTAL RESULT: 97
--
COMPOUND: CCCC1(Cc2ccccc2)OC(=O)C(C(c2ccccc2)C2CC2)=C1O (stereo not drawn)
ATTRIBUTE MEASURED: inhibition at 3.3 µM
MEASURE UNIT: %
EXPERIMENTAL RESULT: 125
